Target: Metabotropic glutamate receptor 8 (Rattus norvegicus) (UniProt P70579)
Sequence (P70579 whole entry, looked up): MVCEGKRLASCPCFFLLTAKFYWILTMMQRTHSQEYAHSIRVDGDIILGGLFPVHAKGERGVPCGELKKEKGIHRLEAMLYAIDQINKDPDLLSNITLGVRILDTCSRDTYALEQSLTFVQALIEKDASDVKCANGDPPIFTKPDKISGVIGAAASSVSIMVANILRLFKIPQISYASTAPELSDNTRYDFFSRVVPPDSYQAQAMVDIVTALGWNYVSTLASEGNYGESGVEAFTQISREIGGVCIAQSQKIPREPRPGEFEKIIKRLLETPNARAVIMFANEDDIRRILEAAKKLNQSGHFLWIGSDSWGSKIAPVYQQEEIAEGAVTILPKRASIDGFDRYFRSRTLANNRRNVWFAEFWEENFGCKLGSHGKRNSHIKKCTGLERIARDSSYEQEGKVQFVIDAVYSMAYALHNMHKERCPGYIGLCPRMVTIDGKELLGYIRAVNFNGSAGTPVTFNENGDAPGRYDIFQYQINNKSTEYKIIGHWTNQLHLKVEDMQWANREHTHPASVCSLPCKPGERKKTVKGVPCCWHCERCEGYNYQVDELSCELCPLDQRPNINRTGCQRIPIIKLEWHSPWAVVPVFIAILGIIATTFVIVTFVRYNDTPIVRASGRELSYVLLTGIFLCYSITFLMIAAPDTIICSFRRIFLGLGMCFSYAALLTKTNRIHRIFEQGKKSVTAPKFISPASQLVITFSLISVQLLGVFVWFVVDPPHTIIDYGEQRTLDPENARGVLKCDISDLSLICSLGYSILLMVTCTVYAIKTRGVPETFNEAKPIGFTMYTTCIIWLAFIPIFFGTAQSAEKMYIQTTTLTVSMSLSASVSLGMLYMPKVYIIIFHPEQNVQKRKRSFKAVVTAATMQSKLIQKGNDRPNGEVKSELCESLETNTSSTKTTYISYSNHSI
Experiment: mGluR8 Gi/Go-coupled signaling modulation – cell-based, rat, thallium flux, HTS, primary screen (AID 488969)
Conditions: HEK293 rat mGluR8, GIRK thallium flux, FluoZin2; at 10 µM; stronger effect = higher value; submaximal glutamate (EC20) added with thallium
Over roughly 110,000 compounds, “z-score” has its median near -0.1; the highest 2% begin near 2. For the sample, the highest values were picked, then their nearest neighbours and some compounds at random.
Please assign a class to every record based on measured z-score, with ranges category 1: < -0.08; category 2: ≥ -0.08 and < 1; category 3: ≥ 1

[Q] Class for `COCCn1c(=S)[nH]c2ncccc2c1=O` ?
[A] category 2

[Q] Class for `O=C1C(Cl)=C(N2CCOCC2)C(=O)N1c1cccc(Cl)c1` ?
[A] category 3

[Q] Class for COC(=O)C1=C(C)NC(=O)NC1c1ccccc1 (stereo not drawn) ?
[A] category 1

[Q] Class for CCOC(=O)C1=C(CSc2nc(-c3ccccc3)ccc2C#N)OC(N)=C(C#N)C1c1cccnc1 (stereo not drawn) ?
[A] category 1

[Q] Class for `CCc1ccc(N2C(=O)C(Cl)=C(N3CCOCC3)C2=O)cc1` ?
[A] category 1

[Q] Class for `COc1ccc(Br)cc1CNC(=O)C1CCN(S(=O)(=O)N2CCCCC2)CC1` ?
[A] category 1

[Q] Class for `O=C(NNC(=O)c1cnccn1)c1cccc([N+](=O)[O-])c1` ?
[A] category 1

[Q] Class for `CCOC(=O)N1CCN(C(=O)c2ccc3c(=O)n(Cc4ccc(Cl)cc4)c(=S)[nH]c3c2)CC1` ?
[A] category 2

[Q] Class for `CC1CCN(CCn2c(=S)[nH]c3ncccc3c2=O)CC1` ?
[A] category 3

[Q] Class for `CCN(CC)CCn1c(=S)[nH]c2ncccc2c1=O` ?
[A] category 2

[Q] Class for CC1CCCCN1CCn1c(=S)[nH]c2ncccc2c1=O (stereo not drawn) ?
[A] category 3

[Q] Class for `Cc1nn2c(NCCCN3CCOCC3)c3c(nc2c1-c1ccccc1)CCC3` ?
[A] category 2

[Q] Class for `O=C(NCc1cn(-c2ccccc2)nc1-c1ccccc1)c1cccc([N+](=O)[O-])c1` ?
[A] category 1

[Q] Class for `O=c1c2cccnc2[nH]c(=S)n1CCCN1CCN(c2ccc(F)cc2)CC1` ?
[A] category 2

[Q] Class for O=C(CC1Nc2ccccc2NC1=O)NCCCN1CCCCCC1 (stereo not drawn) ?
[A] category 3

[Q] Class for CCOC(=O)CC1=C(C(=O)OCC)C(c2cccs2)C(C#N)=C(N)O1 (stereo not drawn) ?
[A] category 3

[Q] Class for CCOC(=O)C1=C(CSc2nc(-c3ccccc3)ccc2C#N)OC(N)=C(C#N)C1c1ccc(OC)cc1 (stereo not drawn) ?
[A] category 2

[Q] Class for `O=c1c2cccnc2[nH]c(=S)n1Cc1ccccc1` ?
[A] category 3

[Q] Class for `O=c1c2ccc(Cl)cc2[nH]c(=S)n1Cc1cccnc1` ?
[A] category 3

[Q] Class for `Cc1nn2c(NCCCN(C)C)c3c(nc2c1-c1ccccc1)CCC3` ?
[A] category 3

[Q] Class for CCCCN(CC)CCCNC(=O)CC1Nc2ccccc2NC1=O (stereo not drawn) ?
[A] category 2

[Q] Class for `CCCCNc1c2c(nc3c(-c4ccccc4)c(C)nn13)CCC2` ?
[A] category 1

###

Please provide measured z-score for the entries that follow.
Target: Metabotropic glutamate receptor 8 (Rattus norvegicus) (UniProt P70579)
Assay: mGluR8 Gi/Go-coupled signaling modulation – cell-based, rat, thallium flux, HTS, primary screen (AID 488969)
Details: HEK293 rat mGluR8, GIRK thallium flux, FluoZin2; at 10 µM; stronger effect = higher value; submaximal glutamate (EC20) added with thallium
Whole data set: some 110,000 compounds, median “z-score” near -0.1, cut for the highest 2% near 2. The sample as a whole holds a higher share of the highest values than the screen did.
Format: numeric value only, no unit, no commentary.

// recorded z-score for `CCOC(=O)CCCCC(=O)c1[nH]c(=O)[nH]c1CSCCO` : 0.565

// recorded z-score for `S=c1[nH]nc(-c2ccco2)n1/N=C/c1ccc(Br)s1` : 4.39

// recorded z-score for `S=c1[nH]nc(-c2ccccn2)n1/N=C/c1ccccc1` : -0.194

// recorded z-score for CCOC(=O)C1CCCN(C(=O)c2cnn3c(C(F)(F)F)cc(-c4ccccc4)nc23)C1 (stereo unspecified) : -2.11

// recorded z-score for `S=c1[nH]nc(-c2ccccn2)n1/N=C/c1ccc(Br)s1` : 5.6

// recorded z-score for `S=c1[nH]nc(-c2ccco2)n1/N=C/c1cccs1` : -0.0217

// recorded z-score for `S=c1[nH]nc(-c2ccccn2)n1/N=C/c1cccs1` : -0.126

// recorded z-score for Cc1ccc(C)c2[nH]c(=O)c(C(c3nnnn3Cc3ccccc3)N3CCc4ccccc4C3)cc12 (stereo unspecified) : -0.148

// recorded z-score for COc1ccc(C2NC(=O)c3n[nH]c(C)c32)c(OC)c1 (stereo unspecified) : 0.447

// recorded z-score for `COc1cc(C)nc(OCCNS(=O)(=O)c2cc(C)ccc2C)n1` : 0.217

// recorded z-score for CC1CC(C)(C)CC2(C1)NC(=O)N(CC(=O)NCC(c1ccco1)N1CCCCC1)C2=O (stereo unspecified) : 0.771

###

Please provide measured z-score for the entries that follow.
Target: Metabotropic glutamate receptor 8 (Rattus norvegicus) (UniProt P70579)
Assay: mGluR8 Gi/Go-coupled signaling modulation – cell-based, rat, thallium flux, HTS, primary screen (AID 488969)
Conditions: HEK293 rat mGluR8, GIRK thallium flux, FluoZin2; at 10 µM; stronger effect = higher value; submaximal glutamate (EC20) added with thallium
Over roughly 110,000 compounds, “z-score” has its median near -0.1; the highest 2% begin near 2. What follows is part of a selection rich in the highest values, with near analogues and random picks from the rest.
Format: numeric value only, no unit, no commentary.

Here CC(NC(=O)C1CCC1)c1ccc(Br)cc1 (stereo unspecified) was tested on Metabotropic glutamate receptor 8 (Rattus norvegicus) (UniProt P70579), and its z-score came to -0.264

Here `CCN(CC)S(=O)(=O)c1cccc(C(=O)N[C@H](C(=O)Nc2nc3ccccc3s2)C(C)C)c1` was tested on Metabotropic glutamate receptor 8 (Rattus norvegicus) (UniProt P70579), and its z-score came to 0.326

Here `Cc1ccc([N+](=O)[O-])cc1NC(=S)NC(=O)c1ccco1` was tested on Metabotropic glutamate receptor 8 (Rattus norvegicus) (UniProt P70579), and its z-score came to 7.69

Here `C/C(=N\NC(=O)c1ccc(OC2CCCC2)cc1)c1ccc(C)s1` was tested on Metabotropic glutamate receptor 8 (Rattus norvegicus) (UniProt P70579), and its z-score came to 1.05

Here `CCOC(=O)c1ccc(NC(=O)CN2C(=O)CNC2=O)cc1` was tested on Metabotropic glutamate receptor 8 (Rattus norvegicus) (UniProt P70579), and its z-score came to -0.263

Here CCNC(=O)C1CC(=O)N(CC)C(=Nc2cc(Cl)c(O)c(Cl)c2)S1 (stereo unspecified) was tested on Metabotropic glutamate receptor 8 (Rattus norvegicus) (UniProt P70579), and its z-score came to 0.28

Here `Cc1ccccc1NC(=O)CSc1nc(COc2ccccc2)nc2ccccc12` was tested on Metabotropic glutamate receptor 8 (Rattus norvegicus) (UniProt P70579), and its z-score came to 0.264

Here `Cc1ccc([N+](=O)[O-])cc1NC(=S)NC(=O)c1cccs1` was tested on Metabotropic glutamate receptor 8 (Rattus norvegicus) (UniProt P70579), and its z-score came to 2.46

Here `Cc1ccc([N+](=O)[O-])cc1NC(=S)NC(=O)CC(C)(C)C` was tested on Metabotropic glutamate receptor 8 (Rattus norvegicus) (UniProt P70579), and its z-score came to 0.834

Here `Cc1ccc([N+](=O)[O-])cc1NC(=S)NC(=O)C(C)(C)C` was tested on Metabotropic glutamate receptor 8 (Rattus norvegicus) (UniProt P70579), and its z-score came to 0.72

Here `COc1ccc(NC(=O)c2cccnc2SC)cc1S(=O)(=O)N1CCCCC1` was tested on Metabotropic glutamate receptor 8 (Rattus norvegicus) (UniProt P70579), and its z-score came to -0.467

###

Biological target: Metabotropic glutamate receptor 8 (Rattus norvegicus)
Assay: mGluR8 Gi/Go-coupled signaling modulation – cell-based, rat, thallium flux, HTS, primary screen (AID 488969)
Settings: HEK293 rat mGluR8, GIRK (G protein-gated inwardly rectifying potassium channel) thallium flux, FluoZin2; at 10 µM; stronger effect = higher value; submaximal glutamate (EC20) added with thallium
The full ranking holds about 110,000 compounds; the median of “z-score” is about -0.1, and the highest 2% start at about 2. What follows is part of a selection rich in the highest values, with near analogues and random picks from the rest.
observable: z-score
Format: numeric value only, no unit, no commentary.

Here CC(=O)C1=C(O)C(=O)N(c2cccc(C(=O)O)c2)C1c1ccc(F)cc1 (stereo not drawn) was tested on Metabotropic glutamate receptor 8 (Rattus norvegicus), and its z-score came to -0.153

Here `S=c1[nH]cnc2scc(-c3ccccc3)c12` was tested on Metabotropic glutamate receptor 8 (Rattus norvegicus), and its z-score came to 13.1

Here `COc1ccc(Cc2c[nH]c(=O)[nH]c2=O)cc1` was tested on Metabotropic glutamate receptor 8 (Rattus norvegicus), and its z-score came to -0.218

Here `COc1ccc(N(C)S(=O)(=O)c2c(C)[nH]c(=O)[nH]c2=O)cc1` was tested on Metabotropic glutamate receptor 8 (Rattus norvegicus), and its z-score came to 0.02

Here CCOC(=O)C1C(=O)CC(C)(O)C(C(=O)OCC)C1c1ccc(OC)cc1 (stereo not drawn) was tested on Metabotropic glutamate receptor 8 (Rattus norvegicus), and its z-score came to -0.0838

Here `Cc1nc(C)c(C(=O)Nc2ccc(Oc3ccccc3)cc2)o1` was tested on Metabotropic glutamate receptor 8 (Rattus norvegicus), and its z-score came to 6.45

Here `CN(C)CCCNc1ncnc2c1cnn2-c1ccccc1` was tested on Metabotropic glutamate receptor 8 (Rattus norvegicus), and its z-score came to 0.0262

Here `C=CCn1c(N)c(C(=O)NCc2ccco2)sc1=S` was tested on Metabotropic glutamate receptor 8 (Rattus norvegicus), and its z-score came to 0.688

Here CCOC(=O)C1=C(C)Nc2nc3ccccc3n2C1c1ccccc1 (stereo not drawn) was tested on Metabotropic glutamate receptor 8 (Rattus norvegicus), and its z-score came to 0.0404

Here `O=C1C(=C(c2ccccc2)c2ccccc2)Nc2ccccc21` was tested on Metabotropic glutamate receptor 8 (Rattus norvegicus), and its z-score came to -1.32

Here `Cc1nnc(SCc2nc(N)nc(Nc3ccccc3)n2)s1` was tested on Metabotropic glutamate receptor 8 (Rattus norvegicus), and its z-score came to -0.209

Here `COc1ccccc1C(=O)Nc1ccc(S(=O)(=O)N2CCc3ccccc32)cc1` was tested on Metabotropic glutamate receptor 8 (Rattus norvegicus), and its z-score came to 0.187

Here `O=c1[nH]cnc2scc(-c3ccc(F)cc3)c12` was tested on Metabotropic glutamate receptor 8 (Rattus norvegicus), and its z-score came to -0.0775

Here `Cc1cccc(NC(=O)CSc2nnc([C@@H]3CCCN3C(=O)OC(C)(C)C)o2)c1C` was tested on Metabotropic glutamate receptor 8 (Rattus norvegicus), and its z-score came to 1.54

Here `Cc1cc(C(=O)N/N=C/c2ccc(-c3ccccc3Cl)o2)n[nH]1` was tested on Metabotropic glutamate receptor 8 (Rattus norvegicus), and its z-score came to -0.496

Here `O=C(c1ccccc1)c1ccc(Oc2ncccn2)cc1` was tested on Metabotropic glutamate receptor 8 (Rattus norvegicus), and its z-score came to -0.321

Here OC(COCc1ccc2c(c1)OCO2)CN1CCN(Cc2ccccc2)CC1 (stereo not drawn) was tested on Metabotropic glutamate receptor 8 (Rattus norvegicus), and its z-score came to -0.00855

Here `CCn1c(N)c(C(=O)NCc2ccco2)sc1=S` was tested on Metabotropic glutamate receptor 8 (Rattus norvegicus), and its z-score came to 4.44

Here `O=c1[nH]cnc2scc(-c3ccccc3)c12` was tested on Metabotropic glutamate receptor 8 (Rattus norvegicus), and its z-score came to 0.259

Here `COc1ccc(OCc2nc(N)nc(Nc3ccc(C)cc3)n2)cc1` was tested on Metabotropic glutamate receptor 8 (Rattus norvegicus), and its z-score came to 0.32

Here O=C(C1CCCCC1)N1CCCC(c2nc3c(nnn3Cc3ccccc3)c(=O)[nH]2)C1 (stereo not drawn) was tested on Metabotropic glutamate receptor 8 (Rattus norvegicus), and its z-score came to 2.1

Here `CCC(=O)NCc1cc(-c2nn(C)c(=O)c3ccccc23)ccc1C` was tested on Metabotropic glutamate receptor 8 (Rattus norvegicus), and its z-score came to -0.415

Here O=C(NCC1CCCO1)c1cccc(F)c1 (stereo not drawn) was tested on Metabotropic glutamate receptor 8 (Rattus norvegicus), and its z-score came to 0.371

Here `O=C1CCCCC(=O)c2ccccc2N1` was tested on Metabotropic glutamate receptor 8 (Rattus norvegicus), and its z-score came to 2.21

Here `COc1ccc(OCc2nc(N)nc(Nc3ccccc3)n2)cc1` was tested on Metabotropic glutamate receptor 8 (Rattus norvegicus), and its z-score came to 5.72

Here `Cc1ccccc1-c1n[nH]c(=S)o1` was tested on Metabotropic glutamate receptor 8 (Rattus norvegicus), and its z-score came to 0.676

Here `CSc1nnc(-c2cc(-c3ccc(C)cc3)nc3ccccc23)o1` was tested on Metabotropic glutamate receptor 8 (Rattus norvegicus), and its z-score came to -0.0721

Here `O=c1[nH]cnc2scc(-c3ccc(-c4ccccc4)cc3)c12` was tested on Metabotropic glutamate receptor 8 (Rattus norvegicus), and its z-score came to 0.454

Here `COc1cccc(NC(=O)c2ocnc2C)c1` was tested on Metabotropic glutamate receptor 8 (Rattus norvegicus), and its z-score came to -0.0866

Here `COc1cc2c(=O)n(Cc3ccccc3)c(=O)n(CC(=O)NCCc3ccccc3)c2cc1OC` was tested on Metabotropic glutamate receptor 8 (Rattus norvegicus), and its z-score came to -0.669

Here `Cc1nc(C)c(C(=O)Nc2cccc(Cl)c2)o1` was tested on Metabotropic glutamate receptor 8 (Rattus norvegicus), and its z-score came to 0.108

Here `COCCNc1ncnc2c1cnn2-c1ccc(Cl)cc1` was tested on Metabotropic glutamate receptor 8 (Rattus norvegicus), and its z-score came to 0.0016

Here `N#Cc1ccccc1NC(=O)COC(=O)CSc1nc2ccccc2o1` was tested on Metabotropic glutamate receptor 8 (Rattus norvegicus), and its z-score came to -2.27

Here CNC(=S)N(Cc1ccc(OC)cc1)C1CC(=O)N(c2ccc(C(=O)OC)cc2)C1=O (stereo not drawn) was tested on Metabotropic glutamate receptor 8 (Rattus norvegicus), and its z-score came to -0.228

Here CCN(CC)S(=O)(=O)c1cc(C(=O)OCC(=O)NC2CCCc3ccccc32)ccc1C (stereo not drawn) was tested on Metabotropic glutamate receptor 8 (Rattus norvegicus), and its z-score came to -0.154

Here `CCC/C=N/NC(=O)c1[nH]c2c([N+](=O)[O-])cccc2c1C` was tested on Metabotropic glutamate receptor 8 (Rattus norvegicus), and its z-score came to 2.02

Here `Cc1cc2cc3c(cc2nc1SCc1ccc(C(=O)O)cc1)OCCO3` was tested on Metabotropic glutamate receptor 8 (Rattus norvegicus), and its z-score came to -0.554

Here `O=C(NCc1ccco1)c1sc(=S)n2c1[nH]c(=O)c1ccccc12` was tested on Metabotropic glutamate receptor 8 (Rattus norvegicus), and its z-score came to 2.75
